Molecular target: T1, human glucose-dependent insulinotropic peptide receptor (human, UniProt P48546 22-466)
T1 sequence (looked up): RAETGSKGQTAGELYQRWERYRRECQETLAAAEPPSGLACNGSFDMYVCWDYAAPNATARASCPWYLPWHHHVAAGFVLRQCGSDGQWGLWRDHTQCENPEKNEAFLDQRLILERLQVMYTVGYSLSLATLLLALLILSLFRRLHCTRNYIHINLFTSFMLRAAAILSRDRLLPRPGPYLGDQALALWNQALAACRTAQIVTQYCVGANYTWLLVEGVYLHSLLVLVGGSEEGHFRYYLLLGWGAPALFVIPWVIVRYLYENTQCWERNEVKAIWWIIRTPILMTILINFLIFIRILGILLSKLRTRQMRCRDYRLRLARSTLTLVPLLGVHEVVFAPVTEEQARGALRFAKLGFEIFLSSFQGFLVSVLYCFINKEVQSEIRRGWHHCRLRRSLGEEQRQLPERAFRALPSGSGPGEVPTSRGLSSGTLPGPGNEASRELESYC
Test: cell-based or functional assay
Some binders, each annotated with its measured hGIPR cAMP Rel EC50.
Readout: hGIPR cAMP Rel EC50 (pM)

{"columns": ["Binder", "Result number"],
 "data": [
  ["YXEGTFISDYSILLDKKAQXEFVNWLLEGGPSSGAPPPS (D-Ala2; K17((2-[2-(2-Amino-ethoxy)-ethoxy]-acetyl)2-(γ-Glu)-CO-(CH2)16-CO2H); Aib20; C-terminal amide) [Example 28]", 11.8],
  ["YXEGTFISDYSILLDKKAQXEFVEWLLAGGPSSGAPPPS (D-Ala2; K17((2-[2-(2-Amino-ethoxy)-ethoxy]-acetyl)2-(γ-Glu)-CO-(CH2)16-CO2H); Aib20; C-terminal amide) [Example 29]", 6.79],
  ["YXEGTFISDYSILLDKKAQXEFVQWLLAGGPSSGAPPPS (D-Ala2; K17((2-[2-(2-Amino-ethoxy)-ethoxy]-acetyl)2-(γ-Glu)-CO-(CH2)16-CO2H); Aib20; C-terminal amide) [Example 27]", 13.2],
  ["YXEGTFISDYSILLDKKAQXDFVNWLLAGGPSSGAPPPS (D-Ala2; K17((2-[2-(2-Amino-ethoxy)-ethoxy]-acetyl)2-(γ-Glu)-CO-(CH2)16-CO2H); Aib20; C-terminal amide) [Example 19]", 9.92],
  ["YXEGTFISDYSILLDKKAQXDFVNWLLEQGPSSGAPPPS (D-Ala2; K17((2-[2-(2-Amino-ethoxy)-ethoxy]-acetyl)2-(γ-Glu)-CO-(CH2)16-CO2H); Aib20; C-terminal amide) [Example 17]", 13.5],
  ["YXEGTFISDYSILLDKKAQXDFVNWLLAQGPSSGAPPPS (D-Ala2; K17((2-[2-(2-Amino-ethoxy)-ethoxy]-acetyl)2-(γ-Glu)-CO-(CH2)16-CO2H); Aib20; C-terminal amide) [Example 2]", 12.3]
]}
